ASSAY_METHOD_TEXT: AUC in mouse at 30 mg/kg, po dosed as crystalline suspension in 20%HPBCD vehicle (20% hydroxypropyl-beta-cyclodextrin/80% water)
Assay type: ADME, organism-based
Set-up: dose 30 mg/kg, route oral
RECORDED_CONDITIONS: plasma

SMILES_STR: Nc1ncnc2c(C(=O)Nc3c(Cl)ccc(NS(=O)(=O)CCCF)c3F)csc12
AUC / µM·h: 1680

* * *

ASSAY_METHOD_TEXT: AUC in mouse at 30 mg/kg, po dosed as as solution
Format: ADME, organism-based
Set-up: dose 30 mg/kg, route oral
RECORDED_CONDITIONS: plasma
OBSERVABLE: AUC (µM·h)

SMILES_STR: CCCS(=O)(=O)Nc1ccc(F)c(NC(=O)c2cccc3c(N)ncnc23)c1F
OBSERVABLE: AUC
MEASUREMENT_UNITS: µM·h
RECORDED_RESULT: 331
